# reported Signal/background; entries follow
- system: T1, MB peptide complexed with HLA-A*02:01 on T2 cells (human)
- T1 construct: whole, on cells
- test name: flow cytometry, peptide-loaded T2 cells;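 also: binding of single-chain Fv antibody constructs, raised in XenoMouse, to peptide-pulsed T2 cells measured by flow cytometry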
readout label: Signal/background

binder	readout label	readout value
18181-A6 (scFv, scFv in bacterial lysate, detected with anti-Flag M2) scFv: EVQLLESGGGLVQPGGSLRLSCAASGFTFSNAWMSWVRQAPGKGLEWVGRIKGNTYGGTTDYAAPVKGRFTISRDDSKNTLYLQMNSLKTEDTAVYYCTTPSYSGSYYNYFSVMDVWGQGTTVTVSSGGGGSGGGGSGGGGSELVMTQSPSSLSASVGDRVTITCRASQSISSYLNWYQQKPGRAPKLLIFAASSLQGGVPSRFSGSGSGTDFTLTISSLQPEDFATYYCQQTYSMPFTFGPGTKLEIK	Signal/background	1
18081-H11 (scFv, scFv in bacterial lysate, detected with anti-Flag M2) scFv: EVQLLESGPALVKPTQTLTLTCTFSGFSFTTHKMGVDWIRQPPGKALEWLALIYWNDDKRYSPSLQSRLTITKDTSKNQVVLTMTNMDPVDTATYYCAYRRYNWNYENWFDPWGQGTLVTVSSGGGGSGGGGSGGGGSELQMTQSPSSLSASVGDRVTITCQASQDISNYLNWYQQKPGKAPKLLIYAASSLQSGVPSRFSGSGSGTDFTLTISSLQPEDFATYYCQQSYTTPFTFGPGTKVEIK	Signal/background	1
18181-C9 (scFv, scFv in bacterial lysate, detected with anti-Flag M2) scFv: EVQLLESGPGLVKPSQTLSLTCTVSGDSISSNPYYWSWIRQLPGKGLEWIGYISYSGSTFYNPSLKSRVTISVDTSKNQFSLNLTSVTAADTAVYYCARDRLWFGVLNYYYGMDVWGLGTTVTVSSGGGGSGGGGSGGGGSELVLTQSPLSLPVTPGEPASISCRSSQSLLHRNGYNYLDWYLQKPGQSPQLLIYLGSNRASGVPDRFSGSGSGTDFTLKISRVEAEDVGVYYCMQGLQTPFTFGPGTKVEIK	Signal/background	1
